These measurements were taken from ChEMBL document CHEMBL1129724.

# Test system: HT-29
# Experiment: Inhibition of glucuronosyltransferase activity in the human colon cancer cell line HT-29 at 5 uM concentration
# Format: cell-based
# Parameters: scale not given: the % may be the effect or the level left
Value type: Activity (%)
# unit: % | format: bare number

Param item = CC(CCC(=O)O)[C@H]1CC[C@H]2[C@@H]3CC[C@@H]4C[C@H](O)CC[C@]4(C)[C@H]3CC(=O)[C@]12C (stereo not given in full) ; retrieve measured Activity. 36.1

// Activity lookup, key: CC(CCC(=O)O)[C@H]1CC[C@H]2[C@@H]3CC[C@@H]4C[C@@H](O)CC[C@]4(C)[C@H]3CC[C@]12C (stereo not given in full) 86.9

// lookup Activity for CC(CC(O)C(=O)O)[C@H]1CC[C@H]2[C@@H]3CC[C@@H]4C[C@H](O)CC[C@]4(C)[C@H]3CC[C@]12C (stereo in doubt) 34.9

Tell me the measured Activity of CC(CCC(=O)O)[C@H]1CC[C@H]2[C@@H]3[C@H](O)[C@H](O)[C@@H]4C[C@H](O)CC[C@]4(C)[C@H]3CC[C@]12C (stereo not given in full) , please. 73.9

Which Activity value belongs to C[C@H](CCC(=O)O)[C@H]1CC[C@H]2[C@@H]3CCC4CC(O)CC[C@]4(C)[C@H]3CC[C@]12C (single isomer, unassigned) ? 46.8

I have this molecule here, CC(CCC(=O)O)C1CCC2C3C=CC4C[C@@H](O)CCC4(C)C3CCC12C (stereo not given in full) , and I need its recorded Activity. 39.1

Look up Activity for this molecule: CC(CCCCC(=O)O)[C@H]1CC[C@H]2[C@@H]3CC[C@@H]4C[C@H](O)CC[C@]4(C)[C@H]3CC[C@]12C (stereo not given in full) 41.9
